The measured values listed here are drawn from ChEMBL document CHEMBL5356931.

# Assay text: Drug exposure in mouse at 5 mg/kg,po
# Assay type: ADME, organism-based
# Parameters: dose 5 mg/kg, route po
# Settings: in vivo
Endpoint label: AUC (ng·h/mL)
Give just the number in ng·h/mL; leave the unit off.

AUC reported for this compound CC(C)Oc1cc(-c2cncc(-c3cnn(C4COC4)c3)c2)ccc1C(N)=O : 2080

###

# Assay text: Solubility of compound at pH 7.4
# Type: physicochemical
# Settings: buffer
Endpoint label: solubility (µg/mL)
Give just the number in µg/mL; leave the unit off.

solubility reported for this compound CC(C)Oc1cc(-c2cccnc2)ccc1C(N)=O : 45
